Experiment: Plasma concentration after single oral dose in rats (in vivo cleavage of the phosphate group)
Parameters: species or system male Sprague-Dawley rats
Details: male, Sprague-Dawley, rat, plasma; 50 mg/Kg po, vehicle Mix, 3 rats; read-out: Tmax (converted)
Value Type: Tmax (h)
One number for each entry, in h.

Enquiry: Any idea what its Tmax is? The molecule is COC(=O)N[C@H](C(=O)NCCCC[C@@H](CO)N(CC(C)C)S(=O)(=O)c1ccc(N)c(F)c1)C(c1ccccc1)c1ccccc1
Return: 1

---

Assay: Cytotoxicity in the same cell culture system
Type: cell-based
Details: human, MT4 cells
Give CC50 for every item shown.

Molecular String | Result
CC(C)(C)NC(=O)[C@@H]1C[C@@H]2CCCC[C@@H]2CN1C[C@@H](O)[C@H](Cc1ccccc1)NC(=O)[C@H](CC(N)=O)NC(=O)c1ccc2ccccc2n1 | 19 µM

// input: 6 molecules below; output: CC50 for each
1. Cc1c(O)cccc1C(=O)N[C@@H](CSc1ccccc1)[C@H](O)CN1C[C@H]2CCCC[C@H]2C[C@H]1C(=O)NC(C)(C)C
2. COC(=O)N[C@H](C(=O)NCCCC[C@@H](CO)N(CC(C)C)S(=O)(=O)c1ccc(N)cc1)C(c1ccccc1)c1ccccc1
3. COC(=O)N[C@H](C(=O)N[C@@H](Cc1ccccc1)[C@@H](O)CN(Cc1ccc(-c2ccccn2)cc1)NC(=O)[C@@H](NC(=O)OC)C(C)(C)C)C(C)(C)C
4. Cc1cccc(C)c1OCC(=O)N[C@@H](Cc1ccccc1)[C@@H](O)C[C@H](Cc1ccccc1)NC(=O)[C@H](C(C)C)N1CCCNC1=O
5. CC(C)(C)NC(=O)[C@@H]1CN(Cc2cccnc2)CCN1C[C@@H](O)C[C@@H](Cc1ccccc1)C(=O)N[C@H]1c2ccccc2C[C@H]1O
6. CC(C)CN(C[C@@H](O)[C@H](Cc1ccccc1)NC(=O)O[C@H]1CCOC1)S(=O)(=O)c1ccc(N)cc1

Return:
1: 8 µM; 2: 33 µM; 3: 55 µM; 4: 28 µM; 5: > 100 µM; 6: > 100 µM
